System: A498
assay details: NCI tumour cell line growth inhibition, 48 h
Active and inactive are the calls of the source. No stated cut-off is given here; in the data, active = GI50 up to about 1.1 µM and inactive = higher.
Quick list: GI50 per entry.

compound="CC1(C)C(=O)C2(N)CCC1C2 (stereo unspecified)" result="> 10 µM (inactive)"

Query: I am curious: what GI50 value has been reported for N#Cc1c(N2CCCC2)ncn(-c2ccccc2)c1=S ?
Result: > 100 µM (inactive)

Query: What does the data say about its GI50? Entry: O=C1CC(S(=O)(=O)O)C=C1Nc1cccc(Cl)c1 (stereo unspecified)
Result: > 100 µM (inactive)

Query: Could you tell me which GI50 is on file for CN/N=C(/CCN1CCCC1)CC(c1ccccc1)c1c(O)c2ccccc2oc1=O (stereo unspecified) ?
Result: > 100 µM (inactive)

Query: Consider the compound CNC(=O)N(CCCCC(NC(C)=O)C(=O)NCc1ccccc1)Cc1ccccc1 (stereo unspecified) and give its measured GI50.
Result: > 100 µM (inactive)

Query: Requested read-out: GI50. Entry: NC(CP(=O)(O)O)C(=O)O (stereo unspecified)
Result: > 100 µM (inactive)

Query: May I ask what GI50 has been recorded for O=S(=O)(/C=C/CS(=O)(=O)c1ccccc1)c1ccccc1 ?
Result: 27.5 µM (inactive)

Query: Give the measured GI50 of CC(C)=C[C@H]1C[C@H](C)[C@H]2CC[C@H](C)c3c2c1c(C)c1ncoc31 .
Result: 19.9 µM (inactive)

Query: Reported GI50, compound CCCCCCCCCCNCCSSCc1ccc(Cl)cc1 : ____
Result: 10.2 µM (inactive)

Query: Request the reported GI50 associated with CC[As](CC)SCC1OC(OC(C)=O)C(OC(C)=O)C(OC(C)=O)C1OC(C)=O (stereo unspecified)
Result: 20.6 µM (inactive)

Query: Name the recorded GI50 for NC(=S)N/N=C1/C(=O)N(c2ccccc2)C(=O)C1C(=O)Nc1ccccc1 (stereo unspecified) .
Result: > 100 µM (inactive)
